# study_target: UniProtKB P28221
# Sequence (P28221 whole entry): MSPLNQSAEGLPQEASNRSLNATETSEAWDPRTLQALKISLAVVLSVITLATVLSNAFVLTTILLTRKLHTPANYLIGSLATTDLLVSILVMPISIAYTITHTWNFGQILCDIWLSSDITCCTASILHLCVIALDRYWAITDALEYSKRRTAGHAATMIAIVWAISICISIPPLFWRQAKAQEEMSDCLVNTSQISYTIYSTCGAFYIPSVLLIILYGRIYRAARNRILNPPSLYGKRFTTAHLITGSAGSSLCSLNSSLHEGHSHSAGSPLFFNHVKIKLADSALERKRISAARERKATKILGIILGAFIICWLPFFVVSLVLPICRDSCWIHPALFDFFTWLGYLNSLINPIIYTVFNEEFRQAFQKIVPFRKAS

{"molecule_smiles": "COc1cccc2[nH]cc(-c3ccnc(N)n3)c12", "Ki": "> 10 µM"}

----------
# study_target: 5-hydroxytryptamine receptor 5A (Homo sapiens)
# Sequence (P47898 whole entry): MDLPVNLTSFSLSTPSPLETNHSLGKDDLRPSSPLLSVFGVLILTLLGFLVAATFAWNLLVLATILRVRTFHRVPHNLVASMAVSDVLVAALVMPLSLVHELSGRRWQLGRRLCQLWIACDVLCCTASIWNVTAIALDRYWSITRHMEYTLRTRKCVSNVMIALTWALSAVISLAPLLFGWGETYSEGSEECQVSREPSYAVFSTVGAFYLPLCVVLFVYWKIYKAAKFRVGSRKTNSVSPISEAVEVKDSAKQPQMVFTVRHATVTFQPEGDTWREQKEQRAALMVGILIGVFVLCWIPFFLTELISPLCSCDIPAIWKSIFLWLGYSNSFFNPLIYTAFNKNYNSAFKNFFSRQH
metric_name: IC50

{"molecule_smiles": "Nc1nc(Cl)ncc1-c1c[nH]c2cccc(O)c12", "study_target": "5-hydroxytryptamine receptor 5A (Homo sapiens)", "reported_result": "> 10 µM"}

----------
In what follows, each item is paired with its IC50 for Sodium-dependent dopamine transporter (Homo sapiens).

{"molecule_smiles": "Nc1nc(Br)ncc1-c1c[nH]c2cccc(O)c12", "IC50": "> 10 µM"}
{"molecule_smiles": "COc1cccc2[nH]cc(-c3ccnc(N)n3)c12", "IC50": "> 10 µM"}
